# reported drug sensitivity score; entries follow
# Test system: HCC1937
# procedureDetails: drug sensitivity score (DSS), CellTiter-Glo (DSS (AUC-based score)); higher = stronger drug effect (viability inhibition or cytotoxicity); extreme values may be limits of the assay
# settings: incubation time: 72 h
Response field accepts a number only; no unit should be typed.

INSERT INTO results (structuresmilesstring, observedvalue) VALUES
  ('C[C@]12CC[C@@H]3c4ccc(OC(=O)N(CCCl)CCCl)cc4CC[C@H]3[C@@H]1CC[C@@H]2O', 0),
  ('CC[C@@H]1C(=O)OC[C@@H]1Cc1cncn1C', 0);

Report measured drug sensitivity score; entry is COc1cc(F)c(F)c(Nc2ccc(I)cc2F)c1NS(=O)(=O)C1(C[C@H](O)CO)CC1
4.08

Report measured drug sensitivity score; entry is CC(=O)N(O)CCCCCNC(=O)CCC(=O)N(O)CCCCCNC(=O)CCC(=O)N(O)CCCCCN
3.29

###

# Test system: HDQ-P1
# procedureDetails: drug sensitivity score (DSS), CellTiter-Glo (DSS (AUC-based score)); higher = stronger drug effect (viability inhibition or cytotoxicity); extreme values may be limits of the assay
# settings: incubation time: 72 h
# reported drug sensitivity score; entries follow
Response field accepts a number only; no unit should be typed.

Solved cases (3 shown):
INSERT INTO results (molecule, observedvalue) VALUES
  ('CC1(C)CCC(CN2CCN(c3ccc(C(=O)NS(=O)(=O)c4ccc(NCC5CCOCC5)c([N+](=O)[O-])c4)c(Oc4cnc5[nH]ccc5c4)c3)CC2)=C(c2ccc(Cl)cc2)C1', 0),
  ('Nc1nc2[nH]cnc2c(=S)[nH]1', 7.16),
  ('O=C1CN2Cc3c(ccc(Cl)c3Cl)N=C2N1 [Anagrelide]', 0);

Here is the next item to consider.
Report measured drug sensitivity score; entry is CC[C@@H]1C(=O)OC[C@@H]1Cc1cncn1C
0

###

# Tested on: HCC1937
# procedureDetails: normalised response (% of control), CellTiter-Glo; higher = more viable cells (100 = DMSO, 0 = benzethonium chloride kill control)
# settings: incubation time: 72 h
normalised response vs 90%: at or above is class 1, below is class 0.

Solved cases (5 shown):
INSERT INTO measurements (compound, experimentaltarget, labelclass) VALUES
  ('CC(=O)O[C@@]12CO[C@@H]1C[C@H](O)[C@@]1(C)C(=O)[C@H](O)C3=C(C)[C@@H](OC(=O)[C@H](O)[C@@H](NC(=O)OC(C)(C)C)c4ccccc4)C[C@@](O)([C@@H](OC(=O)c4ccccc4)[C@H]21)C3(C)C [Docetaxel] (100 nM)', 'HCC1937', 'class 0'),
  ('Oc1ncnc2[nH]ncc12 [Allopurinol] (1 nM)', 'HCC1937', 'class 1'),
  ('C[C@]12CC[C@@H]3c4ccc(OC(=O)N(CCCl)CCCl)cc4CC[C@H]3[C@@H]1CC[C@@H]2O [Estramustine] (1 nM)', 'HCC1937', 'class 1'),
  ('O=NN(CCCl)C(=O)NCCCl [Carmustine] (10 nM)', 'HCC1937', 'class 1'),
  ('Cc1sc2c(c1C)C(c1ccc(Cl)cc1)=N[C@@H](CC(=O)OC(C)(C)C)c1nnc(C)n1-2 [(+)JQ1] (1 nM)', 'HCC1937', 'class 1');

# ---- query compound ----
Is normalised response for O=NN(CCCl)C(=O)NCCCl [Carmustine] (1 nM) at or above 90%?
class 1
